Data origin: PubChem BioAssay (NCATS)

assay: qHTS of pediatric cancer cell lines to identify multiple opportunities for drug repurposing: Primary screen for Rh18 cells (AID 1347102); conditions: Rh18 rhabdomyosarcoma viability, CellTiter-Glo luminescence, 48 h; series mostly up to 46 µM; further: nearly all actives have a fitted effect of over 65% in size
Records with an inconclusive call do not appear. Calls of active or inactive are those of the source. The call rests on the fitted dose curve; in most records, active means well fitted cell-killing curve with a large enough effect; inconclusive means small, poorly fitted or top-dose-only effect; inactive means flat fitted curve, though single readings scatter.
// allowed return values: y (active), n (inactive)

| compound | cat |
| --- | --- |
| O=C(NCCCCN1CCOCC1)c1cc2ccccc2o1 | n |

Task: Call for entry CN[C@@H]1[C@@H](O)[C@@H](O[C@@H]2[C@@H](O)[C@H](O[C@H]3O[C@H](CN)[C@@H](O)[C@H](O)[C@@H]3O)[C@@H](N)C[C@@H]2NC(=O)[C@@H](O)CN)OC[C@]1(C)O :
Output: n

Task: COc1cc2c(cc1OC)CC(=O)N(CCCN(C)C[C@H]1Cc3cc(OC)c(OC)cc31)CC2 , same question.
Output: n

Task: NC[C@H]1O[C@H](O[C@@H]2[C@@H](O)[C@@H](O[C@H]3O[C@H](CO)[C@@H](O)[C@H](N)[C@@H]3O)[C@H](N)C[C@@H]2N)[C@H](O)[C@@H](O)[C@H]1O , same question.
Output: n

Task: OC[C@H]1O[C@@H](OCCc2ccc(O)cc2)[C@H](O)[C@@H](O)[C@H]1O , same question.
Output: n

Task: CNC(=O)c1cc(Oc2ccc(NC(=O)Nc3ccc(Cl)c(C(F)(F)F)c3)c(F)c2)ccn1 , same question.
Output: y

Task: CC(O)=C(C#N)C(=O)Nc1ccc(C(F)(F)F)cc1 , same question.
Output: n

Task: CNC1CCC(N(Cc2cccc(-c3ccncc3)c2)C(=O)c2sc3ccccc3c2Cl)CC1 (stereo not drawn) , same question.
Output: y

Task: Cc1cccc2c1CC[C@H](CN1CCC(c3c(Cl)cccc3Cl)CC1)C[C@@H]2O , same question.
Output: n

Task: CN(C)CCOc1ccc(C(=C(CCCl)c2ccccc2)c2ccccc2)cc1 , same question.
Output: n

Task: CCCCCOC(=O)Nc1nc(=O)n([C@@H]2O[C@H](C)[C@@H](O)C2O)cc1F (stereo partly drawn) , same question.
Output: n

Task: CC(C)N(CCCNC(=O)Nc1ccc(C(C)(C)C)cc1)C[C@H]1O[C@@H](n2cc(Br)c3c(N)ncnc32)[C@H](O)[C@H]1O , same question.
Output: y

Task: CCN1CCC(n2cc(CNc3cc(Cl)c4ncc(C#N)c(Nc5ccc(F)c(Cl)c5)c4c3)nn2)CC1 , same question.
Output: y

Task: CN(C)S(=O)(=O)c1ccc2c(c1)C(=Cc1cc3c([nH]1)CCCC3)C(=O)N2 , same question.
Output: n

Task: COc1c(C)c2c(c(O)c1CC=C(C)CCC(=O)OCCN1CCOCC1)C(=O)OC2 , same question.
Output: n

Task: COc1ccc(-c2ccc3ncc4c(c3c2)n(-c2ccc(N3CCNCC3)c(C(F)(F)F)c2)c(=O)n4C)cn1 , same question.
Output: y

Task: C[C@H]1COC2=C1C(=O)C(=O)c1c2ccc2c1CCCC2(C)C , same question.
Output: n

Task: O=c1[nH]nc(OCCCc2ccc(Cl)cc2)c(NCc2cccnc2)c1Br , same question.
Output: y
